Provenance of the data: the supplement of paper PMC13380429

Test system: Vero E6 infected with SARS-CoV-2
Experiment: inhibition of SARS-CoV-2 cytopathic effect; higher = more antiviral protection, active = above 15
Settings: 100 nM; 48 h
# reported inhibition of SARS-CoV-2 cytopathic effect; entries follow
The response must be a number in % with no trailing unit.

So what's the measured inhibition of SARS-CoV-2 cytopathic effect for this one? CC(C)c1cccc2c1OC(C(C)C)C(=S)N2CC(=O)O (configuration not stated)
1.03

***
For the compound CS(=O)(=O)Nc1ccc([N+](=O)[O-])cc1Oc1ccccc1 [nimesulide] , what inhibition of SARS-CoV-2 cytopathic effect is on record?
1.12

Next: CCC(=O)O[C@]1(C(=O)CCl)[C@@H](C)C[C@H]2[C@@H]3C[C@H](F)C4=CC(=O)C=C[C@]4(C)[C@@]3(F)[C@@H](O)C[C@@]21C [halobetasol-propionate]
-2.65

Follow-up entry: "CO/N=C1\C[C@]2(C[C@@H]3C[C@@H](C/C=C(\C)C[C@@H](C)/C=C/C=C4\CO[C@@H]5[C@H](O)C(C)=C[C@@H](C(=O)O3)[C@]45O)O2)O[C@H](/C(C)=C/C(C)C)[C@H]1C"
-3.57

Lookup "CC1(C)CC[C@]2(C(=O)O)CC[C@]3(C)[C@H](C(=O)C=C4[C@@]5(C)C=C(C#N)C(=O)C(C)(C)[C@@H]5CC[C@]43C)[C@@H]2C1"
2.92

Repeat for the following compound: "NC[C@H]1CC[C@H](C(=O)O)CC1"
2.74

How about CC(=O)OC[C@H]1O[C@@](COC(C)=O)(O[C@H]2O[C@H](COC(C)=O)[C@@H](OC(C)=O)[C@H](OC(C)=O)[C@H]2OC(C)=O)[C@@H](OC(C)=O)[C@@H]1OC(C)=O [sucrose-octaacetate] ?
-1.24
